Below: a set of entries, each annotated with reported protein stability index.
B1: MMP1 (parent)
chain: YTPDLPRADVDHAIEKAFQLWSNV

Variants of: B1
Assay: protein stability index of a GFP-peptide fusion (GPS, HEK-293T) (PSI 1-6); higher = more stable;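 also: lentivirally expressed fusions sorted by FACS into six bins by GFP to DsRed ratio, PSI derived from sequencing read proportions per bin multiplied by bin number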
Conditions: c terminus: a fixed tail appended

MUTANT	protein stability index
P6L	1.32
L20K	2.9
V24K	2.5
R7Y	1.08
P3H	1.79
D9R	1.16
D9T	1.82
A17H	2.68
H12M	1.63
L20F	2.67
S22L	2.19
R7W	1.79
V24N	1.94
I14R	2.31
V10A	2.06
F18N	1.94
A17K	1.44
P3Q	2.96
L20H	2.38
T2A	2.4
A8W	1.87
A17P	1.43
